Target: human PAD4 (Homo sapiens)
Construct: human PAD4 (NM_012387), A2P663, was PCR amplified; His-SUMO (N, cleaved yes)
Test: In vitro PAD4 BAEE biochemical assay
Details: human PAD4, BAEE substrate; 5 nM PAD4, 2 mM calcium chloride, 3 mM BAEE; geometric mean of multiple experiments
pIC50: −log10 of the molar value.
Result Type: pIC50

Molecule | Result Type | Recorded Value
COCc1nn(C)cc1C(=O)N[C@H](C)c1ccc2cc(-c3nc4cc(C(=O)N5[C@H]6CC[C@@H]5[C@H](N)C6)cc(OC)n4c3C)n(CC3CC3)c2n1 [Example 23] | pIC50 | 7.21
CCc1ccc2cc(-c3nc4cc(C(=O)N5[C@H]6CC[C@@H]5[C@H](N)C6)cc(OC)n4c3C)n(CC(F)(F)F)c2n1 [Example 504] | pIC50 | 6.88
CCCO[C@@H]1CCN(C(=O)c2cc(OC)n3c(C)c(-c4cc5ccc([C@@H](C)NC(=O)c6ccccc6)nc5n4CC4CC4)nc3c2)C[C@@H]1N [Example 111] | pIC50 | 6.52
CCN(c1ccc2cc(-c3nc4cc(C(=O)N5CCC[C@@H](N)[C@H]5C)cc(OC)n4c3C)n(CC3CC3)c2n1)S(C)(=O)=O [Example 483] | pIC50 | 6.89
CCC(CC(=O)N1CCCC1)c1ccc2cc(-c3nc4cc(C(=O)N5[C@H]6CC[C@@H]5[C@H](N)C6)cc(OC)n4c3C)n(CC3CC3)c2n1 (stereo partly drawn) [Example 540] | pIC50 | 6.99
COc1cc(C(=O)N2CCC[C@@H](N)[C@H]2C)cc2nc(-c3cc4ccc(N(C(F)F)S(C)(=O)=O)nc4n3CC3CC3)c(C)n12 [Example 411] | pIC50 | 6.84

* * *

The entries below are paired with their reported IC50.
Target: human PAD4 (Homo sapiens, UniProt Q9UM07)
Construct: human PAD4 (NM_012387), A2P663, was PCR amplified; His-SUMO (N, cleaved yes)
Sequence (Q9UM07 2-663): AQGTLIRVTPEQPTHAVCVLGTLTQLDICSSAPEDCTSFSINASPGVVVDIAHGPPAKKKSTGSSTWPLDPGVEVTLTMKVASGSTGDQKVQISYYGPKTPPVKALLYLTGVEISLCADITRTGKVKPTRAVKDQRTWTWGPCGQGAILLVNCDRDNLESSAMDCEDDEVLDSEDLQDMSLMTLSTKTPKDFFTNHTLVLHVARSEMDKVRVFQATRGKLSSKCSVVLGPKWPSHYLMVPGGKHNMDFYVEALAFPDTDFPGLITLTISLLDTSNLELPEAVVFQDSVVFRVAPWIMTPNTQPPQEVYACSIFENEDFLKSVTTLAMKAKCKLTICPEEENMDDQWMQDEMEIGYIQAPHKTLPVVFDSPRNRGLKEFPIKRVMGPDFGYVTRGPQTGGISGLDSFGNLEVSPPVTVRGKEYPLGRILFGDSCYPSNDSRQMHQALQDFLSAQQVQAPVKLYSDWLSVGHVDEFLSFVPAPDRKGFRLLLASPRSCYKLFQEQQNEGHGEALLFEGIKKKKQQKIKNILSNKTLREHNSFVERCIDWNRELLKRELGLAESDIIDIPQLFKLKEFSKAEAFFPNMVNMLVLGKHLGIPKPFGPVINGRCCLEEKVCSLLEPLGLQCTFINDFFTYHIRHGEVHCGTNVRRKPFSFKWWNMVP
Experiment: In vitro PAD4 BAEE biochemical assay
Settings: human PAD4, BAEE substrate; 5 nM PAD4, 2 mM calcium chloride, 3 mM BAEE; geometric mean of multiple experiments

Molecule | Study System | IC50 / nM
[2H]C([2H])([2H])N(c1ccc2cc(-c3nc4cc(C(=O)N5C[C@H]6CC[C@@H]5[C@@H]6N)cc(OC)n4c3C)n(CC)c2n1)S(C)(=O)=O [Example 366] | human PAD4 (Homo sapiens, UniProt Q9UM07) | 499
COc1cc(C(=O)N2C[C@H](N)CCN2C)cc2nc(-c3cc4ccc([C@@H](C)NC(=O)c5ccccc5)nc4n3CC3CC3)c(C)n12 [Example 614] | human PAD4 (Homo sapiens, UniProt Q9UM07) | 90.2
COCC1(C(=O)N[C@H](C)c2ccc3cc(-c4nc5cc(C(=O)N6[C@H]7CC[C@@H]6[C@H](N)C7)cc(OC)n5c4C)n(CC4CC4)c3n2)CC1 [Example 68] | human PAD4 (Homo sapiens, UniProt Q9UM07) | 45.3
COc1cc(C(=O)N2[C@H]3CC[C@@H]2[C@H](N)C3)cc2nc(-c3cc4ccc([C@@H](C)NC(=O)N5CC(C(F)F)C5)nc4n3CC3CC3)c(C)n12 [Example 206] | human PAD4 (Homo sapiens, UniProt Q9UM07) | 37.9
COc1cc(C(=O)N2C[C@H]3C[C@H](OC)[C@@H]2[C@@H]3N)cc2nc(-c3cc4ccc(N(C(F)F)S(C)(=O)=O)nc4n3CC3CC3)c(C)n12 [Example 372] | human PAD4 (Homo sapiens, UniProt Q9UM07) | 2000
COc1cc(C(=O)N2[C@H]3CC[C@@H]2[C@H](N)C3)cc2nc(-c3cc4ccc([C@@H](C)NC(=O)[C@@H]5CC5(F)F)nc4n3CC3CC3)c(C)n12 [Example 130] | human PAD4 (Homo sapiens, UniProt Q9UM07) | 47.2
